MEASURED_ON: GST-Dm-Relish (Drosophila melanogaster, UniProt Q94527 99-473)
Sequence: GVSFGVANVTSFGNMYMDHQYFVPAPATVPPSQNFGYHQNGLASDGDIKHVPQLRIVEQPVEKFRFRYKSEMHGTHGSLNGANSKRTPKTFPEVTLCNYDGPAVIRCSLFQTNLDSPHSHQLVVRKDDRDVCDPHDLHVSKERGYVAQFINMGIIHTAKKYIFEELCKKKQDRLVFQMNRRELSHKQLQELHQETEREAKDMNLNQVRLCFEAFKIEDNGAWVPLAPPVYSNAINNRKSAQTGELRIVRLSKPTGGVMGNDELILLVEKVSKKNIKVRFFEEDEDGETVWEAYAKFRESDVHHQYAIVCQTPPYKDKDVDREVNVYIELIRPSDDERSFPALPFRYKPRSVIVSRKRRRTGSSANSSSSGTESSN
PROTOCOL_NOTES: protein-binding microarray (PBM); PBM: ~300 nM protein, 6 mM HEPES pH 7.8, 80 mM KCl, 0.5 mM EDTA, 0.5 mM EGTA, 6% glycerol, 35 ng/ul poly-dIdC, 1% milk, 1 h, room temperature; Ap Aiptasia and Nv Nematostella (sea anemones) / Co Capsaspora / Aq Amphimedon (sponge) / Dm Drosophila / Hu human; RHD is the Rel homology domain; high values mean tight binding
CONDITION_CONTEXT: dsDNA, one strand shown
OUTCOME_MEASURE: binding signal (z-score)

                                    seq_text        u  assay_value
 0  CCGATTAACATCAAAGACCCCCCTGATGTTAATCGGGTCTTGATTCGCTTGACGCTGCTG  z-score         7.07
 1  CCGATTAACATCAGACTTTTCCCTGATGTTAATCGGGTCTTGATTCGCTTGACGCTGCTG  z-score         1.62
 2  CCGATTAACATCAGGGGGATAGATGATGTTAATCGGGTCTTGATTCGCTTGACGCTGCTG  z-score         2.03
 3  CCGATTAACATCACGGTACTTCCTGATGTTAATCGGGTCTTGATTCGCTTGACGCTGCTG  z-score         7.59
 4  CCGATTAACATCACATGTTTCCCTGATGTTAATCGGGTCTTGATTCGCTTGACGCTGCTG  z-score         1.48
 5  CCGATTAACATCAGGCCCCCCCCTGATGTTAATCGGGTCTTGATTCGCTTGACGCTGCTG  z-score         6.13
 6  CCGATTAACATCAAGTGAATTCCTGATGTTAATCGGGTCTTGATTCGCTTGACGCTGCTG  z-score         3.49
 7  CCGATTAACATCAAACCTTCCCCTGATGTTAATCGGGTCTTGATTCGCTTGACGCTGCTG  z-score         3.12
 8  CCGATTAACATCAGGAATTCCGATGATGTTAATCGGGTCTTGATTCGCTTGACGCTGCTG  z-score          2.4
 9  CCGATTAACATCAGGCATCCCCCTGATGTTAATCGGGTCTTGATTCGCTTGACGCTGCTG  z-score         6.22
10  CCGATTAACATCAGTTCCCCCCATGATGTTAATCGGGTCTTGATTCGCTTGACGCTGCTG  z-score         3.62
11  CCGATTAACATCAGGAATCCCCCTGATGTTAATCGGGTCTTGATTCGCTTGACGCTGCTG  z-score         10.2
12  CCGATTAACATCAAGTCCCCCAATGATGTTAATCGGGTCTTGATTCGCTTGACGCTGCTG  z-score          2.8
13  CCGATTAACATCAAAAAAACCCATGATGTTAATCGGGTCTTGATTCGCTTGACGCTGCTG  z-score         6.31
14  CCGATTAACATCAGGAAAAAACATGATGTTAATCGGGTCTTGATTCGCTTGACGCTGCTG  z-score         2.35
15  CCGATTAACATCAGGGGAGGTACTGATGTTAATCGGGTCTTGATTCGCTTGACGCTGCTG  z-score         6.44
16  CCGATTAACATCAAAACAATCCCTGATGTTAATCGGGTCTTGATTCGCTTGACGCTGCTG  z-score         2.25
17  CCGATTAACATCAAAAAAGTACCTGATGTTAATCGGGTCTTGATTCGCTTGACGCTGCTG  z-score         9.37
